Entries with reported log10 of MNEC on DNA gyrase (Escherichia coli) (UniProt P0AES6+P0AES4)
Base-10 log of MNEC, unit µg/mL.

Examples with answers:
[[record]]
smi = "CCc1nn(-c2cc(Cl)cc(Cl)c2)c2nc(Oc3ccc4c(O)c(C(C)=O)c(=O)oc4c3)nc(N)c12"
reported_metric = "log10 of MNEC"
test_value = 0.30

[[record]]
smi = "Nc1nc(Oc2ccc3c(O)cc(=O)oc3c2)nc2c1cnn2-c1cc(Cl)cc(Cl)c1"
reported_metric = "log10 of MNEC"
test_value = -0.30

[[record]]
smi = "Cc1nn2c(N)nc(Sc3cccc(C(=O)O)c3)nc2c1C#N"
reported_metric = "log10 of MNEC"
test_value = -0.30

[[record]]
smi = "Cc1nn2c(N)nc(Oc3ccc4c(O)cc(=O)oc4c3)nc2c1C#N"
reported_metric = "log10 of MNEC"
test_value = 0.90


Please give log10 of MNEC for each item listed below.
1. CCc1nn(-c2cccc(F)c2)c2nc(Sc3cccc(C(=O)O)c3)nc(N)c12
2. CCc1nn(-c2cc(Cl)cc(Cl)c2)c2nc(Oc3ccc4c(O)cc(=O)oc4c3)nc(NC3CC3)c12
3. CCc1nn(-c2cc(Cl)cc(Cl)c2)c2nc(Sc3cccc(C(=O)O)c3)nc(NC3CC3)c12
4. COc1ccc(-c2cnn3c(N)nc(Oc4ccc5c(O)cc(=O)oc5c4)nc23)cc1OC

-- reply
1: 0.90; 2: 0.60; 3: 0.90; 4: -1.00
